Listed here: items and their measured IC50.
assay_system: IRAK4 (Homo sapiens, UniProt Q9NWZ3)
Sequence (Q9NWZ3 whole entry): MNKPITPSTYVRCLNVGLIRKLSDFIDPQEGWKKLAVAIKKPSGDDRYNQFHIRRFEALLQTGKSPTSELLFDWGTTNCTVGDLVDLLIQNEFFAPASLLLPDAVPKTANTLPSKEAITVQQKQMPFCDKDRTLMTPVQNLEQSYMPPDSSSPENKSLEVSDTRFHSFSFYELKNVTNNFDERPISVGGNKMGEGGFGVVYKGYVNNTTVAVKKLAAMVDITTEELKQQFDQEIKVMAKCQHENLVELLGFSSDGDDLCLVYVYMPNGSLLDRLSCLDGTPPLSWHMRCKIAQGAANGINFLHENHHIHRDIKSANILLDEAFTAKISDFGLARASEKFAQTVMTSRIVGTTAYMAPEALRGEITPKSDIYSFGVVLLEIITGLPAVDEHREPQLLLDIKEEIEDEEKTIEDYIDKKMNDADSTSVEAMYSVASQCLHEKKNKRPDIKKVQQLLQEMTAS
procedure_text: biochemical
Unit nM implied. Number only.

Past entries and their recorded results:
INSERT INTO assay_data (compound, test_value) VALUES
  ('CCn1cccc(NC(=O)c2cn3cc(C45CCC(C)(CC4)OC5)nc3cc2OC2CCC2)c1=O [Example 420]', 0.3),
  ('Cc1cnc2c(NC(=O)c3cn4cc(C56COC(C)(C5)C6)nc4cc3O[C@@H](C)C3CC3)cnn2c1 (single isomer, unassigned) [Example 658]', 0.6),
  ('COc1nc(C(=O)Nc2cccc(C(F)(F)F)n2)cn2cc(C[C@@H]3CCOC3)nc12 (single isomer, unassigned) [Example 70]', 16.9);

Now consider the entry below.
INPUT: What IC50 appears in the records for this compound with IRAK4 (Homo sapiens, UniProt Q9NWZ3)? COc1ccc(Cl)cc1NC(=O)c1cn2cc(C3CCOCC3)nc2cc1OC [Example 112]
OUTPUT: 514

* * *

assay_system: IRAK4 (Homo sapiens)
procedure_text: biochemical
value_kind: IC50

Past entries and their recorded results:
INSERT INTO measurements (molecule, value_kind, test_value) VALUES
  ('CCn1cccc(NC(=O)c2cn3cc(C45CCC(C)(C4)OC5)nc3cc2OC2CCC2)c1=O (centres unmarked) [Example 535]', 'IC50', '1.1 nM'),
  ('CCc1cccc(NC(=O)c2cn3cc(C4CCOCC4)nc3c(OC)n2)n1 [Example 86]', 'IC50', '34 nM'),
  ('COCCn1ccc(NC(=O)c2cn3cc(C4C5COCC54)nc3cn2)n1 (centres unmarked) [Example 84]', 'IC50', '7510 nM');

Now consider the entry below.
INPUT: Item CC(C)Oc1nc2nc(C34CCC(C)(CC3)CO4)cn2cc1C(=O)Nc1ccn(C)n1 [Example 566] has what recorded IC50?
OUTPUT: 0.9 nM

* * *

assay_system: IRAK4 (Homo sapiens)
procedure_text: biochemical
conditions_used: IRAK4 Biochemical Assay (1 mM ATP, 2 h) IC50 (μM), 1 mM ATP, 2 h, 100 pM IRAK4
Where a name gives a salt, the structure may show the parent alone.
value_kind: IC50 (µM)
Unit µM implied. Number only.

INSERT INTO measurements (compound, value_kind, test_value) VALUES
  ('COc1ncccc1NC(=O)c1cn2c(F)c(C34COC(C)(C3)C4)nc2cc1OC(C)C [Example 325, trifluoroacetate]', 'IC50', 0.0086),
  ('CC(C)Oc1cc2nc(C34COC(C)(C3)C4)cn2cc1C(=O)Nc1cccc(C#N)c1F [Example 257, trifluoroacetate]', 'IC50', 0.0003),
  ('CC(C)(C)c1cn2cc(C(=O)Nc3cnn4cccnc34)c(OC3CCC3)cc2n1 [Example 266, trifluoroacetate]', 'IC50', 0.0013);

INPUT: Item CCc1cccc(NC(=O)c2cn3cc(C4CC(OC)C4)nc3cc2OC)n1 (stereo not shown) [Example 61] has what recorded IC50?
OUTPUT: 0.0351

INPUT: Item CC(C)Oc1cc2nc(C34COC(C)(C3)C4)cn2cc1C(=O)Nc1cnn2cccnc12 [Example 299, trifluoroacetate] has what recorded IC50?
OUTPUT: 0.0005

INPUT: Item CC(C)Oc1nc2nc(C34COC(C)(C3)C4)cn2cc1C(=O)Nc1cnn2ccc(C(F)F)nc12 [Example 309, trifluoroacetate] has what recorded IC50?
OUTPUT: 0.0299

INPUT: Item CC(C)Oc1cc2nc(C34COC(C)(C3)C4)cn2cc1C(=O)Nc1cnn(C)n1 [Example 316, trifluoroacetate] has what recorded IC50?
OUTPUT: 0.005

Data provenance is patent US20230087118A1.
